# System under test: PI3Kβ (Homo sapiens, UniProt P42338)
# Construct: made in house
# Sequence (P42338 whole entry): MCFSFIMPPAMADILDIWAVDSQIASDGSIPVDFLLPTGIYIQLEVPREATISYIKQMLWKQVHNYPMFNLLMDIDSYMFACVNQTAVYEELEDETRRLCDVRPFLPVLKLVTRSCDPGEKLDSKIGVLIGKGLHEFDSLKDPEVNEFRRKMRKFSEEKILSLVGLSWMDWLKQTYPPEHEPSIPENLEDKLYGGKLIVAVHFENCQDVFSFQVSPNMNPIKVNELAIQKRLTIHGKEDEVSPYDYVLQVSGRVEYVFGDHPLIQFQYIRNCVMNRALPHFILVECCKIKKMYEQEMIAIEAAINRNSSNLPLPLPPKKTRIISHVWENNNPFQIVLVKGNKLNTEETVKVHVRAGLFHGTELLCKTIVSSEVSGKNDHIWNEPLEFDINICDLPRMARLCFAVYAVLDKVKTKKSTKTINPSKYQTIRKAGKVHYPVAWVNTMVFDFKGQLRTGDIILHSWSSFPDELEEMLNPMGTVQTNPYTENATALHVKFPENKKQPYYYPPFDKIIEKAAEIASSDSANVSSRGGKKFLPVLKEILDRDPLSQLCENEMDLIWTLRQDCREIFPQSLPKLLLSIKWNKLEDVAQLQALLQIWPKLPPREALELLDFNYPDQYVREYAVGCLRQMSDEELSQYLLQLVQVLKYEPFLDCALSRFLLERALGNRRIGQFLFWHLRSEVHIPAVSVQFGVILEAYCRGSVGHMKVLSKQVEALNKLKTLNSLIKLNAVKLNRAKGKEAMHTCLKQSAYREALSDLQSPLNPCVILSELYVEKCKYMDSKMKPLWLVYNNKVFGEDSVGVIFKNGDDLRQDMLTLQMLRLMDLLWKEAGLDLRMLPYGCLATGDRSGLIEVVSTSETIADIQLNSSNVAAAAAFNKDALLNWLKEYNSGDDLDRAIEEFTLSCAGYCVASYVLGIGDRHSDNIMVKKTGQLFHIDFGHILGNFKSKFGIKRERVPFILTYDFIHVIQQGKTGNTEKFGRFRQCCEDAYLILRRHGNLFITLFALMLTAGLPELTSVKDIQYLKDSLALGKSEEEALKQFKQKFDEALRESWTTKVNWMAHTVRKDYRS
# Sequence (P27986 whole entry partner): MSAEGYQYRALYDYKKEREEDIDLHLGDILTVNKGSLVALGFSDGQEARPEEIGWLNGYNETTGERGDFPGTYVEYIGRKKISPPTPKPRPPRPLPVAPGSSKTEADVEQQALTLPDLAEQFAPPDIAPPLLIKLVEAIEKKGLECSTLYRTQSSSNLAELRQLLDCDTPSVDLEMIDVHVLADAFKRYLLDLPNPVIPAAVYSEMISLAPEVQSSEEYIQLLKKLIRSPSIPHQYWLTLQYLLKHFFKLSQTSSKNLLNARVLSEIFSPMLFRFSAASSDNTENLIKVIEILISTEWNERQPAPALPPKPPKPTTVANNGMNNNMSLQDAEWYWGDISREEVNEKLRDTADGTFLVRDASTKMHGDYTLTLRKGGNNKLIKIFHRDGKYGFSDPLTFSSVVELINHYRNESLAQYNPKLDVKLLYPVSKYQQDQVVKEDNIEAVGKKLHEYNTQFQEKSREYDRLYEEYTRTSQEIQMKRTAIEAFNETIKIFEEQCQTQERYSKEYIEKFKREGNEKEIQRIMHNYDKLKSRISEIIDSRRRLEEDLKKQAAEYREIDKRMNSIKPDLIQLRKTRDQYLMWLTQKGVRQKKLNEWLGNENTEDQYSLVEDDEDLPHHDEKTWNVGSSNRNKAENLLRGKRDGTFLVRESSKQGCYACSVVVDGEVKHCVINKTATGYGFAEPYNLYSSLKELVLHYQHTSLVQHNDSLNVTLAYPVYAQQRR
# Method summary: TR-FRET enzymatic activity assay, PI3Kβ
# Type: biochemical
# Run conditions: Table 2a; same assay
pIC50: −log10 of the molar value.
Overview of reported pIC50 across a group of molecules:
Recorded endpoint: pIC50

INSERT INTO measurements (entry_smiles, recorded_endpoint, data_value) VALUES
  ('C[C@H](Nc1nc(N)nc(N)c1Cl)c1nc2ccccc2c(=O)n1-c1cc[nH]n1', 'pIC50', 7.34),
  ('Nc1nc(N)c(Cl)c(N[C@H](c2nc3ccc(F)c(Cl)c3c(=O)n2-c2cc[nH]n2)C2CC2)n1', 'pIC50', 7.31),
  ('Nc1nc(N)c(Cl)c(N[C@H](c2nc3cccc(Cl)c3c(=O)n2-c2c[nH]cn2)C2CC2)n1', 'pIC50', 7.28),
  ('CCC[C@H](Nc1nc(N)nc(N)c1C#N)c1nc2cccc(Cl)c2c(=O)n1-c1cc[nH]n1', 'pIC50', 8.40),
  ('C[C@H](Nc1nc(N)nc(N)c1C#N)c1nc2c(Cl)cc(F)cc2c(=O)n1-c1cc[nH]n1', 'pIC50', 9.00),
  ('CC[C@H](Nc1nc(N)nc(N)c1C#N)c1nc2c(Cl)cc(F)cc2c(=O)n1-c1cc[nH]n1', 'pIC50', 8.15),
  ('Nc1nc(N)c(Cl)c(N[C@H](c2nc3cccc(Cl)c3c(=O)n2-c2cc[nH]n2)C2CCC2)n1', 'pIC50', 7.31),
  ('CC(C)[C@H](Nc1nc(N)nc(N)c1Cl)c1nc2cccc(Cl)c2c(=O)n1-c1cc[nH]n1', 'pIC50', 7.03),
  ('C[C@H](Nc1nc(N)nc(N)c1Cl)c1nc2c(Cl)cc(F)cc2c(=O)n1-c1c[nH]cn1', 'pIC50', 6.47),
  ('C[C@H](Nc1nc(N)nc(N)c1C#N)c1nc2cc(F)cc(Cl)c2c(=O)n1-c1cc[nH]n1', 'pIC50', 8.70),
  ('Cc1n[nH]cc1-n1c([C@@H](Nc2nc(N)nc(N)c2Cl)C2CC2)nc2c(Cl)cc(F)cc2c1=O', 'pIC50', 5.96),
  ('N#Cc1c(N)nc(N)nc1N[C@H](c1nc2ccc(F)c(Cl)c2c(=O)n1-c1cc[nH]n1)C1CC1', 'pIC50', 8.30),
  ('C[C@H](Nc1nc(N)nc(N)c1C#N)c1nc2cc(Cl)ccc2c(=O)n1-c1cc[nH]n1', 'pIC50', 7.48),
  ('C[C@H](Nc1nc(N)nc(N)c1Cl)c1nc2ccc(Cl)c(C(F)F)c2c(=O)n1-c1cc[nH]n1', 'pIC50', 7.07),
  ('C[C@H](NC(=O)c1nc(Cl)c(N)nc1N)c1nc2cccc(Cl)c2c(=O)n1-c1cc[nH]n1', 'pIC50', 7.70),
  ('C[C@H](Nc1nc(N)nc(N)c1Cl)c1nc2c(F)c(F)ccc2c(=O)n1-c1cc[nH]n1', 'pIC50', 6.59),
  ('C[C@H](Nc1ncnc2scc(Br)c12)c1nc2cccc(Cl)c2c(=O)n1-c1cc[nH]n1', 'pIC50', 8.22),
  ('N#Cc1c(N)nc(N)nc1N[C@H](c1nc2cc(F)cc(Cl)c2c(=O)n1-c1cc[nH]n1)C1CC1', 'pIC50', 8.52),
  ('C[C@H](Nc1nc(N)nc(N)c1Cl)c1nc2cccc(Cl)c2c(=O)n1-c1cn[nH]c1', 'pIC50', 7.82),
  ('N#Cc1cc(F)cc2c(=O)n(-c3cc[nH]n3)c([C@@H](Nc3nc(N)nc(N)c3Cl)C3CC3)nc12', 'pIC50', 7.74),
  ('N#Cc1c(N)nc(N)nc1N[C@H](c1nc2c(Cl)cc(F)cc2c(=O)n1-c1c[nH]cn1)C1CC1', 'pIC50', 8.70),
  ('C[C@H](Nc1ncnn2ccnc12)c1nc2cccc(Cl)c2c(=O)n1-c1ccc[nH]1', 'pIC50', 6.85),
  ('C[C@H](Nc1ncnc(N)c1Cl)c1nc2cccc(Cl)c2c(=O)n1-c1cc[nH]n1', 'pIC50', 8.52);
